# credit: patent US20250114345A1

Readings of DC50 for the listed compounds
Target: p300 (Homo sapiens, UniProt Q09472)
Construct: host or cells: A549 P300 HiBit cells
Sequence (Q09472 whole entry): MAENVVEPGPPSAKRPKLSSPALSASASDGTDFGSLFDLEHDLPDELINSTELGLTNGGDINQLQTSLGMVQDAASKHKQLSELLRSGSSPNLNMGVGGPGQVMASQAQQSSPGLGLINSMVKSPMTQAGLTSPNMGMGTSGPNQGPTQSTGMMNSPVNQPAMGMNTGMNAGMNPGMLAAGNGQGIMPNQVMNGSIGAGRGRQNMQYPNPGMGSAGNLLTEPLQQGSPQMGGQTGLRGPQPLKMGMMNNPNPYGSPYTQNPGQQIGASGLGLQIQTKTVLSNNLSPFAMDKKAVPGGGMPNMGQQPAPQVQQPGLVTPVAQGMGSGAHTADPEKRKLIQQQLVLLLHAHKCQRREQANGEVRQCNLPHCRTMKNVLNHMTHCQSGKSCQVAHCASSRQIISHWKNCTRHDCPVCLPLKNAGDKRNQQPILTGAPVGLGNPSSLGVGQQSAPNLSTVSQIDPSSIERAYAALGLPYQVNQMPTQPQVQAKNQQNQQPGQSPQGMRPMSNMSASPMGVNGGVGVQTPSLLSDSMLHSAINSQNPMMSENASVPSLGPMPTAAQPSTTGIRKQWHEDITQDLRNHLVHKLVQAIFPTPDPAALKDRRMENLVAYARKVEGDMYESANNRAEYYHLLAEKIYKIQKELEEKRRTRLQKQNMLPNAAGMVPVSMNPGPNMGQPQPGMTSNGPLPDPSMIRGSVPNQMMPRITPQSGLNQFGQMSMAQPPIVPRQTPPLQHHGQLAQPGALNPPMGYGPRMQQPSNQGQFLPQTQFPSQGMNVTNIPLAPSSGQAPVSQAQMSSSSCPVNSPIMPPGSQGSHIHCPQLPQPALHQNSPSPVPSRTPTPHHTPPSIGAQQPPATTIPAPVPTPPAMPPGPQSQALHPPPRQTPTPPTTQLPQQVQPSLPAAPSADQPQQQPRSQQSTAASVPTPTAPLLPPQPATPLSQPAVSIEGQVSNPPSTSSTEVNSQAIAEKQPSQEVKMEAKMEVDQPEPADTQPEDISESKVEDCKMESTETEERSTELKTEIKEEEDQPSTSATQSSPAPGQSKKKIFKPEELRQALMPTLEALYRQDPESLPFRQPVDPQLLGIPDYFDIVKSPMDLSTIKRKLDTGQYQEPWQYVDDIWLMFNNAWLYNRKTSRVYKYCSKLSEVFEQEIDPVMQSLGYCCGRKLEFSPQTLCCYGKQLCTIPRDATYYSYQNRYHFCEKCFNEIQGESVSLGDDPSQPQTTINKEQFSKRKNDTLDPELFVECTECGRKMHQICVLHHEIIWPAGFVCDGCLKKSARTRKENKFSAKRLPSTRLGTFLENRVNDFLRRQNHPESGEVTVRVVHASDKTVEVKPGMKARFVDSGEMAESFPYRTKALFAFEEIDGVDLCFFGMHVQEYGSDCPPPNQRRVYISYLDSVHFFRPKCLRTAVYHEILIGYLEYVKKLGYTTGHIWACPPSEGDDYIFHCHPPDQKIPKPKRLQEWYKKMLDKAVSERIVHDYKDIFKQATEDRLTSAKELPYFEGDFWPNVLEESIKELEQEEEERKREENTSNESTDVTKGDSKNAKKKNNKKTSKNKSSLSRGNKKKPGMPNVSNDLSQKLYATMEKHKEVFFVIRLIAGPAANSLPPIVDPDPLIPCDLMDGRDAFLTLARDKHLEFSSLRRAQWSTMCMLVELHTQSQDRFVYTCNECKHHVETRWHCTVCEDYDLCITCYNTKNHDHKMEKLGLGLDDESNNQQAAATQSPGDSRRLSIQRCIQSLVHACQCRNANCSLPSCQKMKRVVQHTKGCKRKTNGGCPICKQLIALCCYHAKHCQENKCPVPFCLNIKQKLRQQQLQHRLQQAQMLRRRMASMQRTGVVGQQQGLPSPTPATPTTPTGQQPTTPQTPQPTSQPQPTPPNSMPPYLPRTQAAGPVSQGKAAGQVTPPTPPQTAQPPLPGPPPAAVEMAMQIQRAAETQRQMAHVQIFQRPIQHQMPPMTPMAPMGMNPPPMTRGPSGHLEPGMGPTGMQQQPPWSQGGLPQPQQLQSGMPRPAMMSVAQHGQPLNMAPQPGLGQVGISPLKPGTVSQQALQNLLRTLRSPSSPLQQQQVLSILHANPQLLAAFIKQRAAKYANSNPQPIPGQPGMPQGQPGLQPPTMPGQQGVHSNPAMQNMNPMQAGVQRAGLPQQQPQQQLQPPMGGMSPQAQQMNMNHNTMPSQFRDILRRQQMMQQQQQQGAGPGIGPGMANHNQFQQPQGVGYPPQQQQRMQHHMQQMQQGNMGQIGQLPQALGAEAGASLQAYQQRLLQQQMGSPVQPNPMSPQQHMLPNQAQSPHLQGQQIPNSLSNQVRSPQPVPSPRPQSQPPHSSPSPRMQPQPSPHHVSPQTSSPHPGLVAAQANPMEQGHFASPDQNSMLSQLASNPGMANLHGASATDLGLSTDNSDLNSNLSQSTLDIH
Experiment: P300 degradation, HiBit technology in A549 P300 HiBit cells (2 h)
Format: cell-based
Details: A549 P300 HiBit cells, 2 hrs post treatment
Protocol: p300 and CBP degradation potency and Dmax were determined using in cell western (ICW) assay technology in H1299 cells or HiBit technology in A549 HiBit cells. A549 P300 HiBit and A549 CBP HiBit cells were plated in separate 384-well, TC treated, white-opaque, flat-bottomed microplate. […] After incubation, luminescent signal of each plate was measured using the Envision instrument (Perkin Elmer).

Please review the entries below; each comes with its answer.
{"compound": "CCc1cc(-c2cccc3cc(-c4ccc(C(=O)NCC#Cc5ccc6cnn(C7CCC(=O)NC7=O)c6c5)nc4)ncc23)c2cc(C)c(=O)n(C)c2c1 (stereo not drawn) [Example B5]", "DC50": "1 to 9.9 nM"}
{"compound": "Cc1cc(-c2ccc(N(C)c3cc(C(C)C)c4c(c3)n(C)c(=O)n4C)cc2Cl)cnc1C(=O)NCC#Cc1cccc(NC2CCC(=O)NC2=O)c1 (stereo not drawn) [Example A44]", "DC50": "100 to 999 nM"}
{"compound": "CCc1cc(N2CCCc3cc(-c4ccc(C(=O)NCC#Cc5ccc6occ(C7CCC(=O)NC7=O)c6c5)nc4)c(F)cc32)c2cc(C)c(=O)n(C)c2c1 (stereo not drawn) [Example B133]", "DC50": "1 to 9.9 nM"}
{"compound": "Cc1cc(-c2ncc(N(C)c3cc4c(c(N5CCOCC5)n3)n(C)c(=O)n4C)cn2)cnc1C(=O)NCC#Cc1ccc2occ(C3CCC(=O)NC3=O)c2c1 (stereo not drawn) [Example A147]", "DC50": "> 1000 nM"}
{"compound": "CC(C)c1cc(N2CCN(C)c3cc(-c4ccc(C(=O)NCC#Cc5cccc(NC6CCC(=O)NC6=O)c5)nc4)ncc32)cc2c1n(C)c(=O)n2C (stereo not drawn) [Example A270]", "DC50": "< 1 nM"}

Consider now this further compound.
State, in one line, measured DC50 of Cc1cc2c(N3CCCc4nc(-c5ccc(C(=O)NCC#Cc6cc7c(C8CCC(=O)NC8=O)cccn7n6)nc5)ncc43)cc(C3CCOCC3)cc2n(C)c1=O (stereo not drawn) [Example B170]
1 to 9.9 nM

----------
Target: CBP (Homo sapiens, UniProt Q92793)
Construct: host or cells: A549 CBP HiBit cells
Sequence (Q92793 whole entry): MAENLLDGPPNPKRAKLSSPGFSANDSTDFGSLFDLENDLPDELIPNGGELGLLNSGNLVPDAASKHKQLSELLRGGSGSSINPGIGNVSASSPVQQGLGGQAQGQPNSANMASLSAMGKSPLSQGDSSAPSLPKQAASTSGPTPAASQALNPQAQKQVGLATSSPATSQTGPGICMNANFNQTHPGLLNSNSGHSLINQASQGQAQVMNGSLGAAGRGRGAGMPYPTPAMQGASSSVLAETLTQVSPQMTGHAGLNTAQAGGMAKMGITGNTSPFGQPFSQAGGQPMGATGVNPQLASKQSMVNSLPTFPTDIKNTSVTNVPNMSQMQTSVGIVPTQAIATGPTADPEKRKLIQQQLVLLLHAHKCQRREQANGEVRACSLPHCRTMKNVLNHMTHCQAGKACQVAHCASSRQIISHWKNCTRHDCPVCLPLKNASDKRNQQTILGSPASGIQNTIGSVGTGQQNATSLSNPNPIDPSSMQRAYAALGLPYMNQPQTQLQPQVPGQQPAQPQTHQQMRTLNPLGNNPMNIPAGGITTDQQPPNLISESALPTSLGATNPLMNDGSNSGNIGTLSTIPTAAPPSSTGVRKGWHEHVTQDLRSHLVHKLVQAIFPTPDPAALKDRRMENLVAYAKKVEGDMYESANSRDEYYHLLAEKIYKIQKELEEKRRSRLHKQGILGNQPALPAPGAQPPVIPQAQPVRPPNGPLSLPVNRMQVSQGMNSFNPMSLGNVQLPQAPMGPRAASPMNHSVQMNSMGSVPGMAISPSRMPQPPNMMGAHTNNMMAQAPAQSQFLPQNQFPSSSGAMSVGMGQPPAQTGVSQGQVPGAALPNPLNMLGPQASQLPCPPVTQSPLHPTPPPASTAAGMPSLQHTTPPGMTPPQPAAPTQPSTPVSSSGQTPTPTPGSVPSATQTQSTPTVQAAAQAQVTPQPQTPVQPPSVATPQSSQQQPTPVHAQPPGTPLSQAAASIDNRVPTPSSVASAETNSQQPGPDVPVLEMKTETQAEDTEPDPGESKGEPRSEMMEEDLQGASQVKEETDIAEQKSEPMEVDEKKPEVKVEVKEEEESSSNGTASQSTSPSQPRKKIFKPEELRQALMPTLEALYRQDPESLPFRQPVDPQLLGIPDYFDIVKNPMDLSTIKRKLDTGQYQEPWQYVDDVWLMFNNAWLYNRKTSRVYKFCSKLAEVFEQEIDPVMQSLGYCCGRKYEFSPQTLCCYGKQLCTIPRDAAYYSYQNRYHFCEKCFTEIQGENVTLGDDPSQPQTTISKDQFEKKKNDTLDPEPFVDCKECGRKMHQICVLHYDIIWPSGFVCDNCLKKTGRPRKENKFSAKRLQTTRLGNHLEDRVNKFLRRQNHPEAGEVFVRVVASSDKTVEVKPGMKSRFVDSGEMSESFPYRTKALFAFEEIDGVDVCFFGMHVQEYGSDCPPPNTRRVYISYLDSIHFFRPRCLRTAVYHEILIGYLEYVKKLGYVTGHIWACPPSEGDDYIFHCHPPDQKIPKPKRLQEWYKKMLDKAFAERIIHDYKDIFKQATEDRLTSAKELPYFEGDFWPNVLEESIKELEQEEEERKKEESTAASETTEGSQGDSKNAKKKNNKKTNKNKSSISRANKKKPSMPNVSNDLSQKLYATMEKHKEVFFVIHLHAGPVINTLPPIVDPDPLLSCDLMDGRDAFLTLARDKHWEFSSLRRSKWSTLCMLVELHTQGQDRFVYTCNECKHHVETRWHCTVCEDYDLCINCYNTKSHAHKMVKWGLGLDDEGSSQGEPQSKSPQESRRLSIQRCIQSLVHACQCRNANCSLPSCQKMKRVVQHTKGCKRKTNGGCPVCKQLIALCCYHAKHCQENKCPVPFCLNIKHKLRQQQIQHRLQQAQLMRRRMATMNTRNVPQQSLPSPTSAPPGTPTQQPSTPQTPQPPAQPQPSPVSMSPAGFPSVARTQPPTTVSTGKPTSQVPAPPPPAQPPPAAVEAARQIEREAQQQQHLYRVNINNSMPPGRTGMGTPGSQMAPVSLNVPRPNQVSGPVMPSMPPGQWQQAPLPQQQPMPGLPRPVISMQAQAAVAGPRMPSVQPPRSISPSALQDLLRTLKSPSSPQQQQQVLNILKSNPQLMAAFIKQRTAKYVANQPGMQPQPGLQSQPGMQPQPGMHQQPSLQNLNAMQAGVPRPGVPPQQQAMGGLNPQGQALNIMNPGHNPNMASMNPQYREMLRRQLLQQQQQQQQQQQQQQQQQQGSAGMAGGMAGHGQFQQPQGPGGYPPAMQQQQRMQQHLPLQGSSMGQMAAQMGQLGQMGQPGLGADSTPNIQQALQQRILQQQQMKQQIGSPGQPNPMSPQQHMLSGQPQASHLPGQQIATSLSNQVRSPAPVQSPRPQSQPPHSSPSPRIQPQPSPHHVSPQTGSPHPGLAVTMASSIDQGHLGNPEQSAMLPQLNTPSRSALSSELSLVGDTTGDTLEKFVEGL
Assay: CBP degradation, HiBit technology in A549 CBP HiBit cells (24 h)
Assay type: cell-based
Settings: 24 hrs post treatment
attribute measured: Dmax

Return value of Dmax for input Cc1cc2c(N3CCCc4nc(-c5ccc(C(=O)NCC#Cc6cc7c(C8CCC(=O)NC8=O)nccc7o6)nc5)ncc43)cc(C3CCOCC3)cc2n(C)c1=O (centres unmarked) , no commentary.
20 to 39%

Could you please provide reported Dmax for `Cn1c(=O)n(C)c2cc(-c3cccc4cc(-c5ccc(C(=O)NCC#Cc6cc7c([C@@H]8CCC(=O)NC8=O)cccc7o6)nc5)ncc34)ccc21` ? Thanks!
< 20%

Answer with the recorded Dmax of Cc1cc(-c2ncc3c(n2)CCCN3c2cc(C3CCOCC3)cc3c2cc(C)c(=O)n3C)cnc1C(=O)NCC#Cc1ccc2occ(C3CCC(=O)NC3=O)c2c1 (centres unmarked) only.
< 20%

Given the compound Cc1cc2c(N3CCCc4nc(-c5ccc(C(=O)NCC#Cc6cc7c(C8CCC(=O)NC8=O)cccc7o6)nc5)ncc43)cc(C3CC4CCC(C3)O4)nc2n(C)c1=O (centres unmarked) , write its reported Dmax.
20 to 39%

----------
Here the recorded DC50 is given for each entry.
Target: p300 (Homo sapiens, UniProt Q09472)
Construct: host or cells: A549 P300 HiBit cells
Assay: P300 degradation, HiBit technology in A549 P300 HiBit cells (2 h)
Assay type: cell-based
Conditions: A549 P300 HiBit cells, 2 hrs post treatment

{"compound": "COc1cc(-c2ccc(N(C)c3cc(C(C)C)c4c(c3)n(C)c(=O)n4C)cn2)cnc1C(=O)NCC#Cc1cccc(NC2CCC(=O)NC2=O)c1 (stereo not drawn)", "target or system": "p300 (Homo sapiens, UniProt Q09472)", "DC50": "10 to 99 nM"}
{"compound": "CC(C)c1cc(-c2cccc3cc(-c4ccc(C(=O)NCC#Cc5cc(C#N)c6cnn(C7CCC(=O)NC7=O)c6c5)nc4)ncc23)cc2c1n(C)c(=O)n2C (stereo not drawn)", "target or system": "p300 (Homo sapiens, UniProt Q09472)", "DC50": "100 to 999 nM"}
{"compound": "Cc1cc(-c2cnc(N(C)c3cc(C4CCOCC4)c4c(c3)n(C)c(=O)n4C)cn2)cnc1C(=O)NCC#Cc1cc2c(C3CCC(=O)NC3=O)nccc2o1 (stereo not drawn)", "target or system": "p300 (Homo sapiens, UniProt Q09472)", "DC50": "10 to 99 nM"}
{"compound": "Cc1cc(-c2cc3c(cc2C(F)F)N(c2ccc4c(c2)n(C)c(=O)n4C)CCC3)cnc1C(=O)NCC#Cc1ccc2occ(C3CCC(=O)NC3=O)c2c1 (stereo not drawn)", "target or system": "p300 (Homo sapiens, UniProt Q09472)", "DC50": "1 to 9.9 nM"}
{"compound": "Cc1cc(-c2ncc3c(n2)CCCN3c2cc(C)c3c(c2)n(C)c(=O)n3C)cnc1C(=O)NCC#Cc1cc2c(C3CCC(=O)NC3=O)cccc2o1 (stereo not drawn)", "target or system": "p300 (Homo sapiens, UniProt Q09472)", "DC50": "1 to 9.9 nM"}

Determine its reported DC50: COc1cc(-c2cc3cccc(-c4ccc5c(c4)n(C)c(=O)n5C)c3cn2)cnc1C(=O)NCC#Cc1ccc2occ(C3CCC(=O)NC3=O)c2c1 (stereo not drawn)
1 to 9.9 nM

Give reported DC50 value for Cn1c(=O)n(C)c2cc(-c3cccc4cc(-c5ccc(C(=O)NCC#Cc6ccc7cnn(C8CCC(=O)NC8=O)c7c6)nc5)ncc34)ccc21 (stereo not drawn)
1 to 9.9 nM

Determine its reported DC50: CC(C)c1cc(-c2cccc3cc(-c4ccc(C(=O)NCC#Cc5cc(F)c6occ(C7CCC(=O)NC7=O)c6c5)nc4)ncc23)cc2c1n(C)c(=O)n2C (stereo not drawn)
1 to 9.9 nM

Please supply the value of reported DC50 for the item COc1cc(-c2ncc3c(n2)CCCN3c2cc(C3CCOCC3)cc3c2cc(C)c(=O)n3C)cnc1C(=O)NCC#Cc1ccc2occ(C3CCC(=O)NC3=O)c2c1 (stereo not drawn)
1 to 9.9 nM

Answer with the recorded DC50 of Cc1cc(-c2ncc3c(n2)OCCN3c2cc(C)c3c(c2)n(C)c(=O)n3C)cnc1C(=O)NCC#Cc1cc2c(C3CCC(=O)NC3=O)cccc2o1 (stereo not drawn) only.
1 to 9.9 nM

Dear colleague, please send me the reported DC50 for CC(C)c1cc(-c2cccc3cc(-c4ccc(C(=O)NCC#Cc5cc(NC6CCC(=O)NC6=O)nn5C)nc4)ncc23)cc2c1n(C)c(=O)n2C (stereo not drawn) when you can.
< 1 nM

Give the reported value of DC50 for this record: CN1C(=O)C(C)(C)c2cc(-c3cccc4cc(-c5ccc(C(=O)NCC#Cc6ccc7occ(C8CCC(=O)NC8=O)c7c6)nc5)ncc34)ccc21 (stereo not drawn)
10 to 99 nM

----------
Molecular target: p300 (Homo sapiens, UniProt Q09472)
Construct: host or cells: A549 P300 HiBit cells
Assay: P300 degradation, HiBit technology in A549 P300 HiBit cells (2 h)
Format: cell-based
Details: A549 P300 HiBit cells, 2 hrs post treatment
Here, each record is paired with measured DC50 data.

{"compound": "CC(C)c1cc(-c2cccc3cc(-c4ccc(C(=O)NCC#Cc5cnc6occ(C7CCC(=O)NC7=O)c6c5)nc4)ncc23)cc2c1n(C)c(=O)n2C (stereo not shown)", "target or system": "p300 (Homo sapiens, UniProt Q09472)", "DC50": "1 to 9.9 nM"}

Read off the recorded DC50 for COc1cc(-c2cnc(C(=O)NCC#Cc3cc4c(C5CCC(=O)NC5=O)cccc4o3)c(C)c2)ncc1N(C)c1cc(C2CCOCC2)c2c(c1)n(C)c(=O)n2C (stereo not shown)
1 to 9.9 nM

Please supply the value of reported DC50 for the item Cn1c(=O)n(C)c2c(C3CC3)cc(-c3cccc4cc(-c5ccc(C(=O)NCC#Cc6cc7c(C8CCC(=O)NC8=O)cccc7o6)nc5)ncc34)cc21 (stereo not shown)
1 to 9.9 nM

----------
Known DC50 of a selection of compounds
Target: p300 (Homo sapiens, UniProt Q09472)
Construct: host or cells: A549 P300 HiBit cells
Experiment: P300 degradation, HiBit technology in A549 P300 HiBit cells (2 h)
Format: cell-based
Conditions: A549 P300 HiBit cells, 2 hrs post treatment
Description: p300 and CBP degradation potency and Dmax were determined using in cell western (ICW) assay technology in H1299 cells or HiBit technology in A549 HiBit cells. A549 P300 HiBit and A549 CBP HiBit cells were plated in separate 384-well, TC treated, white-opaque, flat-bottomed microplate. […] After incubation, luminescent signal of each plate was measured using the Envision instrument (Perkin Elmer).

Worked examples follow.
{"compound": "Cc1cc(-c2ncc3c(n2)OCCN3c2ccc3c(c2)n(C)c(=O)n3C)cnc1C(=O)NCC#Cc1ccc2occ(C34CC(C3)C(=O)NC4=O)c2c1", "target or system": "p300 (Homo sapiens, UniProt Q09472)", "attribute measured": "DC50", "value": "10 to 99 nM"}
{"compound": "Cc1cc2c(N3CCCc4cc(-c5ccc(C(=O)NCC#Cc6cc7c(C8CCC(=O)NC8=O)cccc7o6)nc5)ncc43)cc(C3CCOCC3)nc2n(C)c1=O (stereo not drawn)", "target or system": "p300 (Homo sapiens, UniProt Q09472)", "attribute measured": "DC50", "value": "< 1 nM"}
{"compound": "CCc1cc(S(=O)(=O)c2ccc(-c3cnc(C(=O)NCC#Cc4cccc(NC5CCC(=O)NC5=O)c4)c(C)c3)nc2)c2cc(C)c(=O)n(C)c2c1 (stereo not drawn)", "target or system": "p300 (Homo sapiens, UniProt Q09472)", "attribute measured": "DC50", "value": "> 1000 nM"}
{"compound": "Cn1c(=O)n(C)c2cc(N3CCOc4nc(-c5ccc(C(=O)NCC#Cc6cc7c(C8CCC(=O)NC8=O)cccc7o6)nc5)ncc43)ccc21 (stereo not drawn)", "target or system": "p300 (Homo sapiens, UniProt Q09472)", "attribute measured": "DC50", "value": "1 to 9.9 nM"}
{"compound": "Cc1cc(-c2ncc(N(C)c3cc(C(C)C)c4c(c3)n(C)c(=O)n4C)cc2Cl)cnc1C(=O)NCC#Cc1ccc2occ(C3CCC(=O)NC3=O)c2c1 (stereo not drawn)", "target or system": "p300 (Homo sapiens, UniProt Q09472)", "attribute measured": "DC50", "value": "1 to 9.9 nM"}

Here is the next item to consider.
Give recorded DC50. Cc1cc(-c2ncc3c(n2)CCCN3c2cc(C3CCOCC3)cc3c2cc(C)c(=O)n3C)cnc1C(=O)NCC#Cc1ccc2occ(C3CCC(=O)NC3=O)c2c1 (stereo not drawn)
1 to 9.9 nM
